- target_system: PI3K-α (PIK3CA) wild-type (WT) (p110α/p85α complex) (Homo sapiens)
- Construct: Recombinant, catalytically active human full length PIK3KA Wild-type and H1047R mutant were purchased as 1:1 complex; 6xHis (N); purchased EMD Millipore Sigma 14-602M
- assay_procedure: PI3K-Alpha kinase (PIK3CA) biochemical ADP-Glo assay, wild-type
- condition_details: Soy PI lipid substrate; 20 uM ATP; 1 h pre-incubation
Item-by-item account of IC50

Past entries and their recorded results:
>>> reported_measurement("Cc1cc(C(C)Nc2ccccc2C(=O)O)c2oc(C3CCC(F)(F)CC3)cc(=O)c2c1 (single isomer, unassigned; isomer 1) [Example 14]")
"> 10 µM"
>>> reported_measurement("Cc1cc(C(C)Nc2ccccc2C(=O)O)c2oc(C3CCC(F)(F)CC3)c(C)c(=O)c2c1 (single isomer, unassigned; isomer 1) [Example 16]")
"0.5 to 1 µM"
>>> reported_measurement("Cc1cc(C(C)Nc2ccccc2C(=O)O)c2oc(C3(c4ccccc4)CC3)cc(=O)c2c1 (stereo not shown)")
"> 10 µM"
>>> reported_measurement("Cc1cc(C(C)Nc2ccccc2C(=O)O)c2oc(C3Cc4ccccc4C3)c(C)c(=O)c2c1 (single isomer, unassigned; isomer 1) [Example 21]")
"1 to 5 µM"
>>> reported_measurement("Cc1cc(C(C)Nc2ccccc2C(=O)O)c2oc(C3Cc4ccccc4C3)cc(=O)c2c1 (single isomer, unassigned; isomer 1) [Example 18]")
"> 10 µM"

Tell me the measured IC50 of Cc1cc(C(C)Nc2ccccc2C(=O)O)c2oc(C3CCC(F)(F)CC3)cc(=O)c2c1 (single isomer, unassigned; isomer 2) [Example 15] , please. > 10 µM

Quick check: IC50 of Cc1cc(C(C)Nc2ccccc2C(=O)O)c2oc(C3CCC(F)(F)CC3)c(C)c(=O)c2c1 (single isomer, unassigned; isomer 2) [Example 17] ? > 10 µM

###

This listing pairs compounds with measured pIC50.
- target_system: PI3K-α (PIK3CA) H1047R mutant (p110α/p85α complex) (Homo sapiens, UniProt P42336, H1047R)
- Construct: Recombinant, catalytically active human full length PIK3KA Wild-type and H1047R mutant were purchased as 1:1 complex; 6xHis (N); purchased EMD Millipore Sigma 14-792M
- Sequence (P42336 whole entry H1047R): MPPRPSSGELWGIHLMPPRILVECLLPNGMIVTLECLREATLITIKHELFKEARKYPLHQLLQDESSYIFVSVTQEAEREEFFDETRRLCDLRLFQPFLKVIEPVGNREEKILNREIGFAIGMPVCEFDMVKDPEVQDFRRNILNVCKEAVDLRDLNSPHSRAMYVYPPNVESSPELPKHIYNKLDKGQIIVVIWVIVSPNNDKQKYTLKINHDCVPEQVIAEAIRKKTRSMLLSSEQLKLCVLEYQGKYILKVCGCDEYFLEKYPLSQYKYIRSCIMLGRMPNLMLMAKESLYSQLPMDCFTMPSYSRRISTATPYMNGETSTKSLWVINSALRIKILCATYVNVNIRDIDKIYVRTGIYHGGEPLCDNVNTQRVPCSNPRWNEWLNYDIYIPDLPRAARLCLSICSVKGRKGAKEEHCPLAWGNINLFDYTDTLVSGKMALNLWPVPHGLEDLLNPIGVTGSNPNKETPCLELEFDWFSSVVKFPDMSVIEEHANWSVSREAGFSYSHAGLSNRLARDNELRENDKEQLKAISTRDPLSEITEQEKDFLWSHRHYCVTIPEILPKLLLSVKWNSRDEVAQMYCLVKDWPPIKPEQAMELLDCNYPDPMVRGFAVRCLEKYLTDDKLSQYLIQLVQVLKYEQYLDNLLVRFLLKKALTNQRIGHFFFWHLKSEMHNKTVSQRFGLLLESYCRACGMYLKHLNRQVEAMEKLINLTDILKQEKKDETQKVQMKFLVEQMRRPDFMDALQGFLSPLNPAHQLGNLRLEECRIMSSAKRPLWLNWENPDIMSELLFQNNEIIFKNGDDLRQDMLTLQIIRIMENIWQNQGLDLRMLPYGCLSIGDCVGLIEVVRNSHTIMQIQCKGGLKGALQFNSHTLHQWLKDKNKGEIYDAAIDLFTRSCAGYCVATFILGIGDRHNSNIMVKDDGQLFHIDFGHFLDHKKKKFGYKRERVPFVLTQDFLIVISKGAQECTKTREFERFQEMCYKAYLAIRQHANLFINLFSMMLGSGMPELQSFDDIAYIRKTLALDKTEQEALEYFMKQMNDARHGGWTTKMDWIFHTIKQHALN
- Sequence (P27986 whole entry partner): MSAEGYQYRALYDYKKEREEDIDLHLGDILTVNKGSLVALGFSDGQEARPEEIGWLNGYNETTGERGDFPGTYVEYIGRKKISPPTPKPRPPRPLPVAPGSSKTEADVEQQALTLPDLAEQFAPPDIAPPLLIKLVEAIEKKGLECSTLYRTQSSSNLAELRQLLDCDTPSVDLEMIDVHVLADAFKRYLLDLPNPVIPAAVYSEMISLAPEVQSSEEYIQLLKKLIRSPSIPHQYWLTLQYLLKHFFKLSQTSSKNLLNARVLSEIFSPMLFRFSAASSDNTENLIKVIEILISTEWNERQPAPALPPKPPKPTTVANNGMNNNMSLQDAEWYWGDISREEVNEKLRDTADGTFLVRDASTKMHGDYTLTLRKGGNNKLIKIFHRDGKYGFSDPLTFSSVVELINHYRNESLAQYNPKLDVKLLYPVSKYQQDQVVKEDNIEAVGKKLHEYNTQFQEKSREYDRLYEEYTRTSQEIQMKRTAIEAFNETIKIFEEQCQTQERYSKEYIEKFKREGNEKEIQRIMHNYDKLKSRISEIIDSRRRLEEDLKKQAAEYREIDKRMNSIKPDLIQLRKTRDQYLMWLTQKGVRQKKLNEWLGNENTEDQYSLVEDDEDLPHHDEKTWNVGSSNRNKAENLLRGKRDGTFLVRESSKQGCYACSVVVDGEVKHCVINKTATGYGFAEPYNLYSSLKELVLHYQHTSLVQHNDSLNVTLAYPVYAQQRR
- assay_procedure: PI3K-Alpha kinase (PIK3CA) biochemical ADP-Glo assay, H1047R mutant
- condition_details: PIP2diC8 lipid substrate (footnote 1); 20 uM ATP; 1 h pre-incubation
pIC50: −log10 of the molar value.

Examples with their reported pIC50 follow.
>>> reported_measurement("Cc1cc(C(C)Nc2ccccc2C(=O)O)c2oc(C3CCC(C)(C)CC3)cc(=O)c2c1 (single isomer, unassigned; isomer 2) [Example 11]")
"< 5.00"
>>> reported_measurement("CC(Nc1ccccc1C(=O)O)c1cccc2c(=O)cc(C3CCCCC3)oc12 (single isomer, unassigned; isomer 1) [Example 12]")
"< 5.00"
>>> reported_measurement("Cc1cc(C(C)Nc2ccccc2C(=O)O)c2oc(C3CCCCC3)cc(=O)c2c1 (single isomer, unassigned; isomer 1) [Example 8]")
"5.30 to 6.00"
>>> reported_measurement("Cc1cc(C(C)Nc2ccccc2C(=O)O)c2oc(C3CCC(C)(C)CC3)cc(=O)c2c1 (single isomer, unassigned; isomer 1) [Example 10]")
"> 6.30"

Next:
Item Cc1cc(C(C)Nc2ccccc2C(=O)O)c2oc(C3CCCCC3)cc(=O)c2c1 (single isomer, unassigned; isomer 2) [Example 9] with PI3K-α (PIK3CA) H1047R mutant (p110α/p85α complex) (Homo sapiens, UniProt P42336, H1047R) - pIC50? > 6.30

###

- target_system: PI3K-α (PIK3CA) wild-type (WT) (p110α/p85α complex) (Homo sapiens, UniProt P42336)
- Construct: Recombinant, catalytically active human full length PIK3KA Wild-type and H1047R mutant were purchased as 1:1 complex; 6xHis (N); purchased EMD Millipore Sigma 14-602M
- assay_procedure: PI3K-Alpha kinase (PIK3CA) biochemical ADP-Glo assay, wild-type
- condition_details: PIP2diC8 lipid substrate (footnote 1); 20 uM ATP; 1 h pre-incubation
- Excerpt: PI3K-Alpha kinase (PIK3CA) activity, wild-type and H1047R mutant and determining IC50 values for inhibitors Recombinant, catalytically active human full length PIK3KA Wild-type and H1047R mutant were purchased as 1:1 complex of N-terminal 6× his tagged p110α (catalytic) and untagged p85α (regulatory subunit) from EMD Millipore Sigma (cat. no. 14-602M and 14-792M, respectively). […]
metric: IC50

// worked examples, IC50 included
>>> reported_measurement("CC(Nc1ccccc1C(=O)O)c1cccc2c(=O)cc(C3CCCCC3)oc12 (single isomer, unassigned; isomer 1)")
"> 10 µM"
>>> reported_measurement("Cc1cc(C(C)Nc2ccccc2C(=O)O)c2oc(C3CCC(C)(C)CC3)cc(=O)c2c1 (single isomer, unassigned; isomer 1) [Example 10]")
"1 to 5 µM"
>>> reported_measurement("Cc1cc(C(C)Nc2ccccc2C(=O)O)c2oc(C3CCC(C)(C)CC3)cc(=O)c2c1 (single isomer, unassigned; isomer 2) [Example 11]")
"> 10 µM"
>>> reported_measurement("Cc1cc(C(C)Nc2ccccc2C(=O)O)c2oc(C3CCCCC3)cc(=O)c2c1 (single isomer, unassigned; isomer 2) [Example 9]")
"< 0.5 µM"

Next compound, please.
Query for PI3K-α (PIK3CA) wild-type (WT) (p110α/p85α complex) (Homo sapiens, UniProt P42336): what IC50 does the record show for Cc1cc(C(C)Nc2ccccc2C(=O)O)c2oc(C3CCCCC3)cc(=O)c2c1 (single isomer, unassigned; isomer 1) [Example 8] ? > 10 µM

###

- target_system: PI3K-α (PIK3CA) H1047R mutant (p110α/p85α complex) (Homo sapiens, UniProt P42336, H1047R)
- Construct: Recombinant, catalytically active human full length PIK3KA Wild-type and H1047R mutant were purchased as 1:1 complex; 6xHis (N); purchased EMD Millipore Sigma 14-792M
- assay_procedure: PI3K-Alpha kinase (PIK3CA) biochemical ADP-Glo assay, H1047R mutant
- condition_details: Soy PI lipid substrate; 20 uM ATP; 1 h pre-incubation
The compounds listed here are annotated with their IC50.

>>> reported_measurement("CC(Nc1ccccc1C(=O)O)c1cccc2c(=O)cc(C3CCCCC3)oc12 (single isomer, unassigned; isomer 2)")
"< 500 nM"
>>> reported_measurement("Cc1cc(C(C)Nc2ccccc2C(=O)O)c2oc(C3CCC(F)(F)CC3)cc(=O)c2c1 (single isomer, unassigned; isomer 1) [Example 14]")
"> 10000 nM"

We now examine a further compound.
Param item = Cc1cc(C(C)Nc2ccccc2C(=O)O)c2oc(C3CCC(F)(F)CC3)c(C)c(=O)c2c1 (single isomer, unassigned; isomer 1) [Example 16] ; retrieve measured IC50. < 500 nM

###

- target_system: PI3K-α (PIK3CA) wild-type (WT) (p110α/p85α complex) (Homo sapiens, UniProt P42336)
- Construct: Recombinant, catalytically active human full length PIK3KA Wild-type and H1047R mutant were purchased as 1:1 complex; 6xHis (N); purchased EMD Millipore Sigma 14-602M
- assay_procedure: PI3K-Alpha kinase (PIK3CA) biochemical ADP-Glo assay, wild-type
- condition_details: Soy PI lipid substrate; 20 uM ATP; 1 h pre-incubation
In this section, each of the compounds is paired with its reported IC50.

>>> reported_measurement("Cc1cc(C(C)Nc2ccccc2C(=O)O)c2oc(C3Cc4ccccc4C3)c(C)c(=O)c2c1 (single isomer, unassigned; isomer 2) [Example 22]")
"> 10 µM"
>>> reported_measurement("Cc1cc(C(C)Nc2ccccc2C(=O)O)c2oc(C3Cc4ccccc4C3)cc(=O)c2c1 (single isomer, unassigned; isomer 2) [Example 19]")
"1 to 5 µM"

Here's the next entry for you.
# returns recorded IC50 (system: PI3K-α (PIK3CA) wild-type (WT) (p110α/p85α complex) (Homo sapiens, UniProt P42336)) for CC(Nc1ccccc1C(=O)O)c1cccc2c(=O)cc(C3CCCCC3)oc12 (single isomer, unassigned; isomer 2) > 10 µM
